# assay_system: MMP2 (Homo sapiens, UniProt P08253)
# Sequence (P08253 110-660): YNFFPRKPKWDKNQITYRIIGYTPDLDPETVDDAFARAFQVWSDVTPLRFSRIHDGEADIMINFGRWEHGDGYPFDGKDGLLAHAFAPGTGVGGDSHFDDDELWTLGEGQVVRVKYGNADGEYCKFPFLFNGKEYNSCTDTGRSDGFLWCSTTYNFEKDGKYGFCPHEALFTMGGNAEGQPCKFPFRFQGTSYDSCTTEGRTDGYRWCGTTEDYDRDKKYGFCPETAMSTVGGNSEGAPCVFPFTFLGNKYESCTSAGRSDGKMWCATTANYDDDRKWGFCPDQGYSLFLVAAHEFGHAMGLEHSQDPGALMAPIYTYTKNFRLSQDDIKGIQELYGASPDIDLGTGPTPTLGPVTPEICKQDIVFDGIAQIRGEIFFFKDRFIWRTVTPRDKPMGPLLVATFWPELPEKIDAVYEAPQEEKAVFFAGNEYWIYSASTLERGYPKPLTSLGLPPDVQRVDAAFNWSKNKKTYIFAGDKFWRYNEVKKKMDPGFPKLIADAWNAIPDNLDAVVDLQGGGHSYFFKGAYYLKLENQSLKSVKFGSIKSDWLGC
# assay_method_text: MMP-2 colorimetric inhibition assay (Enzo kit BML-AK408)
# Type: biochemical
# condition_details: thiopeptide substrate, absorbance 415 nm; read-out: MMP 2 IC50 class
pIC50: −log10 of the molar value.
Item-by-item account of pIC50

pIC50 in this record for COCCOC(=O)N1[C@@H]2CC[C@H]1[C@H](C(=O)NO)N(S(=O)(=O)c1ccc(Oc3ccc(OC(F)F)cc3)nc1)C2 [Example 24] : > 7.30

pIC50 in this record for COCCOC(=O)N1[C@@H]2CC[C@H]1[C@H](C(=O)NO)N(S(=O)(=O)c1ccc(Oc3ccc(F)cc3)nc1)C2 [Example 1] : > 7.30

pIC50 in this record for COCCOC(=O)N1[C@@H]2CC[C@H]1[C@H](C(=O)NO)N(S(=O)(=O)c1ccc(Oc3ccc(OC(C)C)cc3)nc1)C2 [Example 30] : > 7.30

pIC50 in this record for COCCOC(=O)N1[C@@H]2CC[C@H]1[C@H](C(=O)NO)N(S(=O)(=O)c1cnc(Oc3ccc(F)cc3)cn1)C2 [Example 17] : 5.00 to 6.00

pIC50 in this record for CC(C)C(=O)N1[C@@H]2CC[C@H]1[C@H](C(=O)NO)N(S(=O)(=O)c1ccc(Oc3ccc(OC(F)(F)F)cc3)nc1)C2 [Example 56] : > 7.30

pIC50 in this record for CCc1ccc(Oc2ccc(S(=O)(=O)N3C[C@H]4CC[C@@H]([C@@H]3C(=O)NO)N4C(=O)OCCOC)cn2)cc1 [Example 33] : > 7.30
